// data source = patent US11912703B2

- Target under test: UniProt:Q9NR96
- Assay text: TLR9 inhibition reporter assay (HEK-Blue SEAP)
- Stated conditions: read-out: TLR9 IC50; HEK-Blue cells overexpressing human TLR9, ODN2006 5 nM stimulation, SEAP reporter
pIC50: −log10 of the molar value.
Measure: pIC50

• Cc1cc(-c2[nH]c3cnc(C4CCN(C(C)C)CC4)c(F)c3c2C(C)C)cc(C)n1 = 5.97
• CNC(=O)CN1CCN(c2ncc3[nH]c(-c4cc(OC)c5ncnn5c4)c(C(C)C)c3c2Cl)CC1 = 4.54
• CNC(=O)CN1CCC(c2cc3c(C(C)C)c(-c4cc(OC)c5ncnn5c4)[nH]c3cn2)CC1 = 6.52
• CNC(=O)CN(C)C1CCC(c2cc3c(C(C)C)c(-c4cc(OC)c5ncnn5c4)[nH]c3cn2)CC1 (stereo not shown) [Example 328] = 5.86
• Cc1cc(-c2[nH]c3cnc(N4CCC(N5CCC5)CC4)c(F)c3c2C(C)C)cn2ncnc12 = 5.40
• Cc1c(-c2[nH]c3cnc(C4CCC(N5CCC5)CC4)c(F)c3c2C(C)C)cn2ncnc2c1C (stereo not shown) = 6.04
• Cc1c(N2CCC(NC34CC(C3)C4)CC2)ncc2[nH]c(-c3cc(C)c4ncnn4c3)c(C(C)C)c12 = 5.93
• Cc1cc(-c2[nH]c3cnc(N4CCC(N(C)C(C)C)CC4)c(F)c3c2C(C)C)cn2ncnc12 = 5.28
• COc1cc(-c2[nH]c3cnc(C4CCC(NC5COC5)C4)cc3c2C(C)C)cn2ncnc12 (stereo not shown) [Example 273] = 6.42
• Cc1c(-c2[nH]c3cnc(N4CCC(NCC(C)(C)C)CC4)c(F)c3c2C(C)C)cn2ncnc2c1C = 5.36
• COc1cc(-c2[nH]c3cnc(C4CCC(NCC(C)(C)OC)CC4)c(C)c3c2C(C)C)cn2ncnc12 (stereo not shown) [Example 206] = 6.59
• COc1cc(-c2[nH]c3cnc(N4CCN(CC5(C)COC5)CC4)c(F)c3c2C(C)C)cn2ncnc12 = 4.38
• CCN1CCN(c2ncc3[nH]c(-c4cc(OC)c5ncnn5c4)c(C(C)C)c3c2F)CC1 = 5.21
• COc1cc(-c2[nH]c3cnc(N4CCC(N(C)CC(F)F)CC4)c(F)c3c2C(C)C)cn2ncnc12 = 4.51
• COc1cc(-c2[nH]c3cnc(N4CCNCC4)c(F)c3c2C(C)C)cn2ncnc12 = 5.60

* * *

# maps each entry to its pIC50
- Target under test: human TLR7 (Homo sapiens (Human))
- Sequence (Q9NYK1 27-1049): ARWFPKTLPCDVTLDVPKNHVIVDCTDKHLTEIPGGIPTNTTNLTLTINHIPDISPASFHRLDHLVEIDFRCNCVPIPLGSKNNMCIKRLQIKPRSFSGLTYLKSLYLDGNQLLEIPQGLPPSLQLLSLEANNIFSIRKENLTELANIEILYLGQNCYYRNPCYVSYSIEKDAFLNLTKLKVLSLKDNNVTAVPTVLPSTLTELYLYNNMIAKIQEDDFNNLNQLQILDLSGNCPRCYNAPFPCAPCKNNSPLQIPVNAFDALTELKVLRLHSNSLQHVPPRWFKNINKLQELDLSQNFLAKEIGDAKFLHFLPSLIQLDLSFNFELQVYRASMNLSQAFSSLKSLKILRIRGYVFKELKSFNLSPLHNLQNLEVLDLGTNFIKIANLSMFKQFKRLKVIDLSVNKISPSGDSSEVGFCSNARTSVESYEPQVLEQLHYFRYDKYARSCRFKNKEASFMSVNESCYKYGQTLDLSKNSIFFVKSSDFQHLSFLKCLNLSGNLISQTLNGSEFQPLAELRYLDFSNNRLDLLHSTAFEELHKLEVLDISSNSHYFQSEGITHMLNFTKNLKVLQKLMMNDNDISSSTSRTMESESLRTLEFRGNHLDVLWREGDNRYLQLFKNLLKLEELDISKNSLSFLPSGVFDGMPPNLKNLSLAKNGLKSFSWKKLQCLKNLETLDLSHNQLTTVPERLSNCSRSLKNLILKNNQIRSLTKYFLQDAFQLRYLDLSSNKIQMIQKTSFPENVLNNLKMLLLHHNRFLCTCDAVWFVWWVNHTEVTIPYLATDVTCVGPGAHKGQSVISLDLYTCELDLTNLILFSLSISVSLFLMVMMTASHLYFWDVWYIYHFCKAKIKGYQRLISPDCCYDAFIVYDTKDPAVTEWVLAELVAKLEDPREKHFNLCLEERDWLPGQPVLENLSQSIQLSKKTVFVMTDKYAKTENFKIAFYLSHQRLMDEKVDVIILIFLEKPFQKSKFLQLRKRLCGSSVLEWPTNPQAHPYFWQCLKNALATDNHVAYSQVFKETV
- Assay text: TLR7 inhibition reporter assay (HEK-Blue SEAP)
- Stated conditions: HEK-Blue cells overexpressing human TLR7, gardiquimod 7.5 μM stimulation
pIC50: −log10 of the molar value.
Measure: pIC50

* Cc1cc(-c2[nH]c3cnc(C4CCC(NCC(C)(C)C)CC4)c(F)c3c2C(C)C)cn2ncnc12 (stereo not drawn) [Example 260] | 8.85
* COCCNC1CCC(c2cc3c(C(C)C)c(-c4cn5ncnc5c(C)c4C)[nH]c3cn2)CC1 (stereo not drawn) [Example 348] | 8.46
* Cc1cc(-c2[nH]c3cnc(C4CCC(NC5COC5)CC4)c(F)c3c2C(C)C)cn2ncnc12 (stereo not drawn) [Example 107] | 8.44
* COc1cc(-c2[nH]c3cnc(N4CCN(CC(F)(F)F)C[C@H]4C)c(F)c3c2C(C)C)cn2ncnc12 | 7.43
* CCN(C)C1CCN(c2ncc3[nH]c(-c4cn5ncnc5c(C)c4C)c(C(C)C)c3c2C)CC1 | 8.89
* Cc1cc(-c2[nH]c3cnc(N4CCC(N(C)CC(N)=O)CC4)c(F)c3c2C(C)C)cn2ncnc12 | 8.85
* COc1cc(-c2[nH]c3cnc(C4CCC(N5CC6(COC6)C5)CC4)c(F)c3c2C(C)C)cn2ncnc12 (stereo not drawn) [Example 161] | 8.62
* Cc1c(-c2[nH]c3cnc(N4CCN(CC(=O)N(C)C)CC4)c(F)c3c2C(C)C)cn2ncnc2c1C | 7.92
* Cc1c(-c2[nH]c3cnc(N4CCN(C5COC5)CC4)c(F)c3c2C(C)C)cn2ncnc2c1C | 8.60
* Cc1cc(-c2[nH]c3cnc(N4CCC(NCC(C)(C)O)CC4)c(F)c3c2C(C)C)cn2ncnc12 | 9.11
* COc1cc(-c2[nH]c3cnc(C4CCC(NC5CCOC5)CC4)cc3c2C(C)C)cn2ncnc12 (stereo not drawn) [Example 342] | 8.42
* Cc1c(-c2[nH]c3cnc(C4CCC(NC5CCOCC5)CC4)c(C)c3c2C(C)C)cn2ncnc2c1C (stereo not drawn) [Example 120] | 8.64
* COc1cc(-c2[nH]c3cnc(C4CCN(CC(=O)N(C)C)CC4)c(C)c3c2C(C)C)cn2ncnc12 | 8.01
* CNC(=O)CNC1CCN(c2cc3c(C(C)C)c(-c4cc(OC)c5ncnn5c4)[nH]c3cn2)CC1 | 8.12
* COc1cc(-c2[nH]c3cnc(N4CCC(N(C)CC(F)F)CC4)c(F)c3c2C(C)C)cn2ncnc12 | 7.70

* * *

- Target under test: human TLR8 (Homo sapiens (Human), UniProt Q9NR97)
- Sequence (Q9NR97 27-1041): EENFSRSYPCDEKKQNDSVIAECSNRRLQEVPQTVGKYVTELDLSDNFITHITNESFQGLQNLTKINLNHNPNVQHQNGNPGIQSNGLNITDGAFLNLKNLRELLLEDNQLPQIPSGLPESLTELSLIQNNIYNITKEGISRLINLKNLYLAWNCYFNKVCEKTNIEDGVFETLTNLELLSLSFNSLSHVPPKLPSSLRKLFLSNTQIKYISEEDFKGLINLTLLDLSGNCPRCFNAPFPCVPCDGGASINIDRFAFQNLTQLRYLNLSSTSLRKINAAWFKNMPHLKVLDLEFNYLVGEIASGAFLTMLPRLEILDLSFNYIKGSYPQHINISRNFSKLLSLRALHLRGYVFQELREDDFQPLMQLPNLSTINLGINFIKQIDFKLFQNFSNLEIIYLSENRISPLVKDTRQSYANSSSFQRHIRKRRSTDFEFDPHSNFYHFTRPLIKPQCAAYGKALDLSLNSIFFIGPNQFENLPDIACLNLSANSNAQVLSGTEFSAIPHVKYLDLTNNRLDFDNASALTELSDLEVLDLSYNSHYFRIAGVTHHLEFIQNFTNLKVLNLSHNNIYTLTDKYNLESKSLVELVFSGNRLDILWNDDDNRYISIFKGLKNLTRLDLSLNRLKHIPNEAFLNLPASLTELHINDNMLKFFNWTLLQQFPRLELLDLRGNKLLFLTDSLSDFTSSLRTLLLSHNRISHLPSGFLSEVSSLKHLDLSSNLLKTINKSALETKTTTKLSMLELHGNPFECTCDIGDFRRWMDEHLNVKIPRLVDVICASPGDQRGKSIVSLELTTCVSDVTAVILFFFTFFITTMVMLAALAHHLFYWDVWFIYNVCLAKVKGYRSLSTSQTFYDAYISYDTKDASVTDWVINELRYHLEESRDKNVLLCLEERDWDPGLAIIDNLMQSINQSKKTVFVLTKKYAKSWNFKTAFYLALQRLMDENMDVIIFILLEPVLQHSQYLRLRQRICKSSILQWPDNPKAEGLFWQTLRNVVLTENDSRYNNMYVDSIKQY
- Assay text: TLR8 inhibition reporter assay (HEK-Blue SEAP);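 further: SEAP driven by IFN-β minimal promoter with five NF-κB and AP-1 sites, compounds tested 0.05 nM to 50 µM, 22 h incubation, inhibition relative to agonist plus DMSO wells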
- Stated conditions: read-out: TLR8 IC50; HEK-Blue cells overexpressing human TLR8, R848 15.9 μM stimulation, SEAP reporter
pIC50: −log10 of the molar value.
Short version: pIC50 at least 8 is Fulfilled, less is Not fulfilled.

- COCCN1CCN(c2ncc3[nH]c(-c4cc(OC)c5ncnn5c4)c(C(C)C)c3c2C)CC1 [Example 126]: Fulfilled
- COc1cc(-c2[nH]c3cnc(N4CCN(CC(N)=O)C[C@H]4C)c(F)c3c2C(C)C)cn2ncnc12 [Example 447]: Not fulfilled
- Cc1c(-c2[nH]c3cnc(N4CCN(CC(C)(C)O)CC4)c(F)c3c2C(C)C)cn2ncnc2c1C [Example 426]: Fulfilled
- Cc1c(-c2[nH]c3cnc(N4CC5(C4)CN(C4CCN(C(C)C)CC4)C5)c(F)c3c2C(C)C)cn2ncnc2c1C [Example 406]: Fulfilled
- COc1cc(-c2[nH]c3cnc(N4CCC(NC56CC(C5)C6)CC4)c(C)c3c2C(C)C)cn2ncnc12 [Example 56]: Fulfilled

* * *

- Target under test: human TLR9 (Homo sapiens (Human))
- Sequence (Q9NR96 26-1032): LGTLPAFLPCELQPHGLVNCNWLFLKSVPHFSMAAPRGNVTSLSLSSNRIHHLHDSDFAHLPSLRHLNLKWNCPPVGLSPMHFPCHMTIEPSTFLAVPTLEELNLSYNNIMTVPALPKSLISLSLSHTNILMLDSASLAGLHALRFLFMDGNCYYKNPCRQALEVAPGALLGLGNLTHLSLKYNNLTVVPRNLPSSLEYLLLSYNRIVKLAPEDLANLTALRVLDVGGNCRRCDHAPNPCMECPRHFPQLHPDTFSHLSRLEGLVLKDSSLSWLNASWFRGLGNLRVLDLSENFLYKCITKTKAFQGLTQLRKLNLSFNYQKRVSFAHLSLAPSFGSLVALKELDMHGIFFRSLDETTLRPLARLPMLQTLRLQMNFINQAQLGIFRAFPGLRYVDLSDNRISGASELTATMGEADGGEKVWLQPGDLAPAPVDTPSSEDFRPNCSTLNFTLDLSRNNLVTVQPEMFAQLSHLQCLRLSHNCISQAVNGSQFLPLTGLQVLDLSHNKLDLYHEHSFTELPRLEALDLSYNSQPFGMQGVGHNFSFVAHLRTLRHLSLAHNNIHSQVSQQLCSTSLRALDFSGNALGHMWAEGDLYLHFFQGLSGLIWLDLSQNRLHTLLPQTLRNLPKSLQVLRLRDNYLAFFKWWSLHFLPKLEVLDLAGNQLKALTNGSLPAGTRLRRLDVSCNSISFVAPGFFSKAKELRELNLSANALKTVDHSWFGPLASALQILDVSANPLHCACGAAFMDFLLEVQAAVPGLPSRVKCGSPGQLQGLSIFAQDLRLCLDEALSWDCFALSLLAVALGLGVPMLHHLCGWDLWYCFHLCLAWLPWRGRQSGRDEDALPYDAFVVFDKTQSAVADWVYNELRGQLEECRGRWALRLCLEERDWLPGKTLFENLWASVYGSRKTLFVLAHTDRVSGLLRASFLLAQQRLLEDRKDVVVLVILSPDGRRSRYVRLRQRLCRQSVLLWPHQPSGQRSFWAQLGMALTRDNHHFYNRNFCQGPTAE
- Assay text: TLR9 inhibition reporter assay (HEK-Blue SEAP);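 further: SEAP driven by IFN-β minimal promoter carrying five NF-κB and AP-1 sites, 22 h at 37 °C, compounds 0.05 nM–50 µM, inhibition scaled between agonist-plus-DMSO and reference-inhibitor wells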
- Stated conditions: read-out: TLR9 IC50; HEK-Blue cells overexpressing human TLR9, ODN2006 5 nM stimulation, SEAP reporter
# maps each entry to its log10(IC50)
Measure: log10(IC50) (log10 of the value in µM)

* COc1cc(-c2[nH]c3cnc(N4CCN(CC(=O)N5CCOCC5)CC4)c(F)c3c2C(C)C)cn2ncnc12 [Example 363] | 1.64
* COc1cc(-c2[nH]c3cnc(C4CCC(N(C)C5COC5)CC4)c(F)c3c2C(C)C)cn2ncnc12 (stereo not drawn) [Example 106] | 0.29
* Cc1cc(-c2[nH]c3cnc(C4CCN(CC(N)=O)CC4)c(F)c3c2C(C)C)cn2ncnc12 [Example 125] | 0.85
* COc1cc(-c2[nH]c3cnc(N4CCN(CC(=O)N(C)C)CC4)c(F)c3c2C(C)C)cn2ncnc12 [Example 360] | 1.36
* Cc1c(-c2[nH]c3cnc(N4CC5(CN(CC(C)C)C5)C4)c(F)c3c2C(C)C)cn2ncnc2c1C [Example 402] | 0.78
* COc1cc(-c2[nH]c3cnc(C4CCN(C(C)C)CC4)c(C)c3c2C(C)C)cn2ncnc12 [Example 33] | -0.87
* Cc1c(N2CCC(NC3CCOCC3)CC2)ncc2[nH]c(-c3cc(C)c4ncnn4c3)c(C(C)C)c12 [Example 265] | 0.01
* COc1cc(-c2[nH]c3cnc(N4CCC(NC56CC(C5)C6)CC4)c(C)c3c2C(C)C)cn2ncnc12 [Example 56] | 0.00
* COc1cc(-c2[nH]c3cnc(C4CCC(NCC(C)(C)OC)C4)cc3c2C(C)C)cn2ncnc12 (stereo not drawn) [Example 96] | -0.53
* Cc1c(N2CCC(N(C)C(C)C)CC2)ncc2[nH]c(-c3cc(C)c4ncnn4c3)c(C(C)C)c12 [Example 124] | -0.04
* COc1cc(-c2[nH]c3cnc(C4CCC(NCC5(C)COC5)CC4)c(C)c3c2C(C)C)cn2ncnc12 (stereo not drawn) [Example 269] | -0.69
* COCCN1CCC(c2ncc3[nH]c(-c4cc(OC)c5ncnn5c4)c(C(C)C)c3c2F)CC1 [Example 21] | 0.52
* CNCC(=O)N1CCC(c2ncc3[nH]c(-c4cc(OC)c5ncnn5c4)c(C(C)C)c3c2F)CC1 [Example 10] | -0.05
* CNC(=O)CN1CCC(c2ncc3[nH]c(-c4cc(C)c5ncnn5c4)c(C(C)C)c3c2F)CC1 [Example 181] | 0.82
* COc1cc(-c2[nH]c3cnc(C4CCC(NC5COC5)CC4)c(C)c3c2C(C)C)cn2ncnc12 (stereo not drawn) [Example 243] | -0.37
* COc1cc(-c2[nH]c3cnc(N4CC5(CN(C)C5)C4)c(F)c3c2C(C)C)cn2ncnc12 [Example 378] | 0.71
* COc1cc(-c2[nH]c3cnc(N4CCC(NC5COC5)CC4)c(F)c3c2C(C)C)cn2ncnc12 [Example 42] | 0.96
* CNC(=O)CN1CC2(C1)CN(c1ncc3[nH]c(-c4cc(OC)c5ncnn5c4)c(C(C)C)c3c1F)C2 [Example 356] | 1.27
* Cc1c(N2CCC(N3CCS(=O)(=O)CC3)CC2)ncc2[nH]c(-c3cc(C)c4ncnn4c3)c(C(C)C)c12 [Example 281] | 1.56
* COc1cc(-c2[nH]c3cnc(C4CCNCC4)c(F)c3c2C(C)C)cn2ncnc12 [Example 3] | 0.20
* COCCNC1CCC(c2cc3c(C(C)C)c(-c4cn5ncnc5c(C)c4C)[nH]c3cn2)CC1 (stereo not drawn) [Example 347] | -0.10
* Cc1c(-c2[nH]c3cnc(C4CCC(NC5CCOCC5)CC4)c(C)c3c2C(C)C)cn2ncnc2c1C (stereo not drawn) [Example 119] | -0.25
* COc1cc(-c2[nH]c3cnc(N4CCC(NC5CCOC5)CC4)c(F)c3c2C(C)C)cn2ncnc12 (stereo not drawn) [Example 190] | -0.06
* CCN(C)C1CCN(c2ncc3[nH]c(-c4cn5ncnc5c(C)c4C)c(C(C)C)c3c2F)CC1 [Example 83] | 0.96
* Cc1c(-c2[nH]c3cnc(C4CCN(C(=O)CN(C)C)CC4)c(F)c3c2C(C)C)cn2ncnc2c1C [Example 29] | 0.23
* COc1cc(-c2[nH]c3cnc(N4CCN(CC5CCOCC5)CC4)c(F)c3c2C(C)C)cn2ncnc12 [Example 383] | 0.73
